System: colorectal carcinoma (HT-29) cells
Experiment notes: Antiproliferative MTT assay, HT-29
Assay type: cell-based, human
Cond: Homo sapiens, HT-29, 72 h, 72 h incubation, MTT; mean ± SD
Parameter measured: IC50 (µM)

Recorded results for 5 molecules are shown here.
{"columns": ["Molecule", "Measured on", "IC50 [µM]"],
 "data": [
  ["OC(Cn1cc(Cn2ccc3ccccc32)nn1)c1ccc(C(F)(F)F)cc1 (centres unmarked) [Compound 30b]", "colorectal carcinoma (HT-29) cells", 51],
  ["O[C@H](Cn1cc(Cn2cnc3c(Cl)ncnc32)nn1)c1ccc(F)cc1 [Compound (S)-37b]", "colorectal carcinoma (HT-29) cells", 24],
  ["OCC(c1ccc(Cl)cc1)n1cc(Cn2cnc3c(Cl)ncnc32)nn1 (centres unmarked) [Compound 38a]", "colorectal carcinoma (HT-29) cells", 33],
  ["O[C@H](Cn1cc(Cn2ccc3c(Cl)ncnc32)nn1)c1ccccc1 [Compound (S)-41b]", "colorectal carcinoma (HT-29) cells", 41],
  ["OC(Cn1cc(Cn2cnc3c(Cl)ncnc32)nn1)c1ccc(C(F)(F)F)cc1 (centres unmarked) [Compound 40b]", "colorectal carcinoma (HT-29) cells", 14]
]}

(A) OCC(c1ccc(C(F)(F)F)cc1)n1cc(Cn2cnc3c(Cl)ncnc32)nn1 (centres unmarked) [Compound 40a]
(B) OCC(c1ccc(F)cc1)n1cc(Cn2ccc3ccccc32)nn1 (centres unmarked) [Compound 27a]
QUERY: # returns the entry with the larger IC50; inputs A and B Mark your answer with the label of the selected entry.
RESULT: B
(B: 47 µM, A: 0.69 µM)

----------
Test system: hepatocellular carcinoma (HepG2) cells
Experiment notes: Antiproliferative MTT assay, HepG2
Format: cell-based, human
Cond: Homo sapiens, HepG2, 72 h, 72 h incubation, MTT; mean ± SD
Parameter measured: IC50 (µM)

{"columns": ["Compound", "Parameter measured", "Val"],
 "data": [
  ["OCC(c1ccc(Cl)cc1)n1cc(Cn2cnc3c(Cl)ncnc32)nn1 (stereo not shown) [Compound 38a]", "IC50", 34]
]}

(P) OC(Cn1cc(Cn2cnc3ccccc32)nn1)c1ccc(C(F)(F)F)cc1 (stereo not shown) [Compound 35b]
(Q) O[C@@H](Cn1cc(Cn2ccc3c(Cl)ncnc32)nn1)c1ccc(F)cc1 [Compound (R)-42b]
QUERY: Among P and Q , whose measured IC50 is the smaller figure? Mark your answer with the label of the selected entry.
RESULT: Q

----------
// values below are reported SI (HepG2)
System: hepatocellular carcinoma (HepG2) cells
Experiment notes: Antiproliferative MTT assay, HepG2
Assay type: cell-based, human
Cond: SI = [IC50 HFF]/[IC50 HepG2]
Write the value as a bare number.

{"columns": ["Compound", "Measured on", "SI (HepG2)"],
 "data": [
  ["OC(Cn1cc(Cn2cnc3c(Cl)ncnc32)nn1)c1ccc(Cl)cc1 (stereo not drawn) [Compound 38b]", "hepatocellular carcinoma (HepG2) cells", 0.6],
  ["OCC(c1ccc(Br)cc1)n1cc(Cn2cnc3c(Cl)ncnc32)nn1 (stereo not drawn) [Compound 39a]", "hepatocellular carcinoma (HepG2) cells", 0.9],
  ["OC(Cn1cc(Cn2cnc3c(Cl)ncnc32)nn1)c1ccc(Br)cc1 (stereo not drawn) [Compound 39b]", "hepatocellular carcinoma (HepG2) cells", 0.7]
]}

--- query ---
QUERY: # input compound: O[C@H](Cn1cc(Cn2cnc3c(Cl)ncnc32)nn1)c1ccc(C(F)(F)F)cc1 [Compound (S)-40b] ; wanted: its SI (HepG2)
RESULT: 1.7

----------
System: hepatocellular carcinoma (HepG2) cells
Experiment notes: Antiproliferative MTT assay, HepG2
Assay type: cell-based, human
Cond: Homo sapiens, HepG2, 72 h, 72 h incubation, MTT; mean ± SD
pIC50: −log10 of the molar value.
Parameter measured: pIC50

Recorded results for 3 compounds are shown here.
{"columns": ["Compound", "pIC50"],
 "data": [
  ["O[C@H](Cn1cc(Cn2cnc3c(Cl)ncnc32)nn1)c1ccccc1 [Compound (S)-36b]", 4.68],
  ["O[C@@H](Cn1cc(Cn2cnc3c(Cl)ncnc32)nn1)c1ccccc1 [Compound (R)-36b]", 4.24],
  ["OCC(c1ccccc1)n1cc(Cn2ccc3c(Cl)ncnc32)nn1 (stereo not drawn) [Compound 41a]", 4.42]
]}

(1) OCC(c1ccc(Br)cc1)n1cc(Cn2ccc3ccccc32)nn1 (stereo not drawn) [Compound 29a]
(2) OCC(c1ccccc1)n1cc(Cn2cnc3c(Cl)ncnc32)nn1 (stereo not drawn) [Compound 36a]
QUERY: Among 1 and 2 , whose measured pIC50 is the smaller figure? Mark your answer with the label of the selected entry.
RESULT: 2
(2: 4.26, 1: 4.54)

(P) OCC(c1ccc(Br)cc1)n1cc(Cn2cnc3ccccc32)nn1 (stereo not drawn) [Compound 34a]
(Q) OCC(c1ccc(C(F)(F)F)cc1)n1cc(Cn2cnc3ccccc32)nn1 (stereo not drawn) [Compound 35a]
QUERY: # returns the entry with the larger pIC50; inputs P and Q Mark your answer with the label of the selected entry.
RESULT: P

----------
Tested on: P-glycoprotein (human MDR1)
Experiment notes: MDCKII-MDR1 permeability assay
Assay type: in vitro ADME, canine cells with over-expressed human MDR1 gene
Cond: dog, MDCK-MDR1; 10 µM, 60 min, 37 °C
Parameter measured: Papp B→A at 60 min, 10 µM (×10⁻⁶ cm/s)

{"columns": ["Compound", "Papp B→A at 60 min, 10 µM [×10⁻⁶ cm/s]"],
 "data": [
  ["OCC(c1ccc(Br)cc1)n1cc(Cn2cnc3c(Cl)ncnc32)nn1 (stereo not drawn) [Compound 39a]", 58],
  ["OC(Cn1cc(Cn2cnc3c(Cl)ncnc32)nn1)c1ccc(Br)cc1 (stereo not drawn) [Compound 39b]", 69.6],
  ["OC(Cn1cc(Cn2cnc3ccccc32)nn1)c1ccc(Br)cc1 (stereo not drawn) [Compound 34b]", 69.4]
]}

----------
Tested on: colorectal carcinoma (HT-29) cells
Experiment notes: Antiproliferative MTT assay, HT-29
Type: cell-based, human
Cond: Homo sapiens, HT-29, 72 h, 72 h incubation, MTT; mean ± SD
pIC50: −log10 of the molar value.
Parameter measured: pIC50

Recorded results for 5 molecules are shown here.
{"columns": ["Molecule", "pIC50"],
 "data": [
  ["OC(Cn1cc(Cn2ccc3c(Cl)ncnc32)nn1)c1ccccc1 (stereo not shown) [Compound 41b]", 4.30],
  ["O=c1[nH]cc(F)c(=O)[nH]1 [Compound 5-FU, 5-Fluorouracil, reference compound]", 6.64],
  ["O[C@@H](Cn1cc(Cn2ccc3c(Cl)ncnc32)nn1)c1ccc(C(F)(F)F)cc1 [Compound (R)-45b]", 4.35],
  ["O[C@H](Cn1cc(Cn2cnc3c(Cl)ncnc32)nn1)c1ccc(C(F)(F)F)cc1 [Compound (S)-40b]", 5.30],
  ["O[C@@H](Cn1cc(Cn2ccc3c(Cl)ncnc32)nn1)c1ccccc1 [Compound (R)-41b]", 4.34]
]}

(P) OC(Cn1cc(Cn2ccc3ccccc32)nn1)c1ccc(Br)cc1 (stereo not shown) [Compound 29b]
(Q) O[C@@H](Cn1cc(Cn2cnc3c(Cl)ncnc32)nn1)c1ccc(C(F)(F)F)cc1 [Compound (R)-40b]
QUERY: # returns the entry with the larger pIC50; inputs P and Q Mark your answer with the label of the selected entry.
RESULT: Q

----------
Test system: hepatocellular carcinoma (HepG2) cells
Experiment notes: Antiproliferative MTT assay, HepG2
Format: cell-based, human
Cond: Homo sapiens, HepG2, 72 h, 72 h incubation, MTT; mean ± SD
Parameter measured: IC50 (µM)

Recorded results for 3 compounds are shown here.
{"columns": ["Compound", "Measurement unit", "IC50"],
 "data": [
  ["OCC(c1ccc(C(F)(F)F)cc1)n1cc(Cn2ccc3c(Cl)ncnc32)nn1 (centres unmarked) [Compound 45a]", "µM", 28],
  ["O[C@@H](Cn1cc(Cn2cnc3c(Cl)ncnc32)nn1)c1ccc(Cl)cc1 [Compound (R)-38b]", "µM", 39],
  ["OCC(c1ccc(F)cc1)n1cc(Cn2cnc3c(Cl)ncnc32)nn1 (centres unmarked) [Compound 37a]", "µM", 37]
]}

(P) O[C@H](Cn1cc(Cn2ccc3c(Cl)ncnc32)nn1)c1ccccc1 [Compound (S)-41b]
(Q) O[C@H](Cn1cc(Cn2cnc3c(Cl)ncnc32)nn1)c1ccc(Cl)cc1 [Compound (S)-38b]
QUERY: # returns the entry with the larger IC50; inputs P and Q Mark your answer with the label of the selected entry.
RESULT: P
(P: 41 µM, Q: 28 µM)

----------
Tested on: colorectal carcinoma (HT-29) cells
Experiment notes: Antiproliferative MTT assay, HT-29
Format: cell-based, human
Cond: Homo sapiens, HT-29, 72 h, 72 h incubation, MTT; mean ± SD
Parameter measured: IC50 (µM)

Recorded results for 5 compounds are shown here.
{"columns": ["Compound", "Measurement unit", "IC50"],
 "data": [
  ["O[C@H](Cn1cc(Cn2cnc3c(Cl)ncnc32)nn1)c1ccccc1 [Compound (S)-36b]", "µM", 48],
  ["OC(Cn1cc(Cn2ccc3ccccc32)nn1)c1ccc(Cl)cc1 (stereo not drawn) [Compound 28b]", "µM", 46],
  ["OCC(c1ccc(F)cc1)n1cc(Cn2ccc3c(Cl)ncnc32)nn1 (stereo not drawn) [Compound 42a]", "µM", 39],
  ["O[C@H](Cn1cc(Cn2ccc3c(Cl)ncnc32)nn1)c1ccc(Cl)cc1 [Compound (S)-43b]", "µM", 33],
  ["OC(Cn1cc(Cn2cnc3c(Cl)ncnc32)nn1)c1ccc(Br)cc1 (stereo not drawn) [Compound 39b]", "µM", 50]
]}

(P) OCC(c1ccc(F)cc1)n1cc(Cn2cnc3c(Cl)ncnc32)nn1 (stereo not drawn) [Compound 37a]
(Q) OC(Cn1cc(Cn2ccc3c(Cl)ncnc32)nn1)c1ccc(C(F)(F)F)cc1 (stereo not drawn) [Compound 45b]
QUERY: # returns the entry with the larger IC50; inputs P and Q Mark your answer with the label of the selected entry.
RESULT: P
